Assignment: determine reported β-Galactosidase Activity, Cultured With ATC for the given molecules.
# System: tet operator sequence
# measurementDescription: β-galactosidase activity of a tetracycline-regulated promoter in transformed E. coli with revTetR, in the presence and absence of anhydrotetracycline (atc)
# Type: cell-based, Escherichia coli
# recordedConditions: RevTetR isolate cultured in the presence of anhydrotetracycline (ATC)
One number for each entry.

Use the examples below as a reference point.
molecule	observedResult
TetRrevAF2/16: revTetR(BD) E19V Y93C D95Y A97T K98N V99L L101L (protein, Modified tetracycline repressor, revTetR(BD) E19V Y93C D95Y A97T K98N V99L L101L) MSRLDKSKVINSALELLNVVGIEGLTTRKLAQKLGVEQPTLYWHVKNKRALLDALAVEILARHHDYSLPAAGESWQSFLRNNAMSFRRALLRCRYGTNLHLGTRPDEKQYDTVETQLRFMTENGFSLRDGLYAISAVSHFTLGAVLEQQEHTAALTDRPAAPDENLPPLLREALQIMDSDDGEQAFLHGLESLIRGFEVQLTALLQIV	2.622
TetRrevAtc4-4: revTetR(BD) I59S R62S (protein, Modified tetracycline repressor, revTetR(BD) I59S R62S) MSRLDKSKVINSALELLNEVGIEGLTTRKLAQKLGVEQPTLYWHVKNKRALLDALAVESLASHHDYSLPAAGESWQSFLRNNAMSFRRALLRYRDGAKVHLGTRPDEKQYDTVETQLRFMTENGFSLRDGLYAISAVSHFTLGAVLEQQEHTAALTDRPAAPDENLPPLLREALQIMDSDDGEQAFLHGLESLIRGFEVQLTALLQIV	2.5363
TetRrev4/6-25: revTetR(BD) I59S L60L R62G D95A V99L (protein, Modified tetracycline repressor, revTetR(BD) I59S L60L R62G D95A V99L) MSRLDKSKVINSALELLNEVGIEGLTTRKLAQKLGVEQPTLYWHVKNKRALLDALAVESLAGHHDYSLPAAGESWQSFLRNNAMSFRRALLRYRAGAKLHLGTRPDEKQYDTVETQLRFMTENGFSLRDGLYAISAVSHFTLGAVLEQQEHTAALTDRPAAPDENLPPLLREALQIMDSDDGEQAFLHGLESLIRGFEVQLTALLQIV	3.433
TetRrevAD3/2: revTetR(BD) A56P E58H A61A H63Y (protein, Modified tetracycline repressor, revTetR(BD) A56P E58H A61A H63Y) MSRLDKSKVINSALELLNEVGIEGLTTRKLAQKLGVEQPTLYWHVKNKRALLDALPVHILARYHDYSLPAAGESWQSFLRNNAMSFRRALLRYRDGAKVHLGTRPDEKQYDTVETQLRFMTENGFSLRDGLYAISAVSHFTLGAVLEQQEHTAALTDRPAAPDENLPPLLREALQIMDSDDGEQAFLHGLESLIRGFEVQLTALLQIV	3.5891

Can you share its β-Galactosidase Activity, Cultured With ATC? I mean this molecule: TetRrev4/6-24: revTetR(BD) A61T V99R (protein, Modified tetracycline repressor, revTetR(BD) A61T V99R) MSRLDKSKVINSALELLNEVGIEGLTTRKLAQKLGVEQPTLYWHVKNKRALLDALAVEILTRHHDYSLPAAGESWQSFLRNNAMSFRRALLRYRDGAKRHLGTRPDEKQYDTVETQLRFMTENGFSLRDGLYAISAVSHFTLGAVLEQQEHTAALTDRPAAPDENLPPLLREALQIMDSDDGEQAFLHGLESLIRGFEVQLTALLQIV
2.428
